Reported pIC50 is given for each of the following binders.
- test_target: T1, human NKG2A on cells (human, UniProt P26715 1-233)
- T1 construct: also called hNKG2A; CHO-hNKG2A
- T1 sequence (P26715 whole entry): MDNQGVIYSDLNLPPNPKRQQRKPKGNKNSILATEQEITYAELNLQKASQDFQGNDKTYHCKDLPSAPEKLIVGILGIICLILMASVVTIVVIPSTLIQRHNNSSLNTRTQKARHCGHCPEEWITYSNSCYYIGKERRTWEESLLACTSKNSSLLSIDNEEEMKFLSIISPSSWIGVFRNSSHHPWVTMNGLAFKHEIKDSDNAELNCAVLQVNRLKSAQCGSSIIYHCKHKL
- method: flow cytometry, blocking of labelled HLA-E pentamer on CHO cells expressing human NKG2A
Would you please state pIC50, meaning minus log10 of the concentration in mol/L, as a bare number?

The following binders have reported results that may help.
{"columns": ["binder", "measured_property", "numeric_result"],
 "data": [
  ["NKG2A.12 antibody (antibody, human IgG1, kappa, V domains shown, IgG1.3f; also called 13F3.A4 VH-I107T) VH: EVQLVESGGGLVKPGGSLRLSCAASGFTFSSHSMNWVRQAPGKGLEWVSAISSSSSYIYYADSVKGRFTISRDNAKNSLYLQMNSLRAEDTAVYYCAREEWGLPFDYWGQGTLVTVSS VL: AIQLTQSPSSLSASVGDRVTITCRASQGINSALAWYQQKPGKAPKLLIYDASSLKSGVPSRFSGSGSGTDFTLTISSLQPEDFATYYCQQFNSYPLTFGQGTRLEIKR", "pIC50", 10.00],
  ["NKG2A.5 antibody (antibody, V domains shown, also called recombinant 11H9.A4) VH: EVQLVESGGGLVKPGGSLRLSCAASGFTFSSYSMNWVRQAPGKGLEWVSSISSSSSYIYYADSVKGRFTISRDNAKNSLYLQMNSLRAEDTAVYYCARLLWFGEIFDYWGQGTLVTVSS VL: AIQLTQSPSSLSASVGDRVTITCRASQGISSALAWYQQKPGKAPKLLIYDASSLKSGVPSRFSGSGSGTDFTLTISSLQPEDFATYYCQQFNSYPITFGQGTRLEIK", "pIC50", 9.52],
  ["2G6.C2 antibody (antibody, human IgG1, kappa, V domains shown, Hybridoma antibody) VH: EVQLVESGGGLVQRGGSLRLSCAASGFTFSSNSMNWIRQAPGKGLEWVAHISSGSSFIYYADSVKGRFTISRDNAKNSLSLQMNSLRDEDTAVYYCARDDWGIDAFNIWGQGTMVTVSS VL: EIVLTQSPATLSLSPGERATLSCRASQSVSSSLAWYQQKPGQAPRLLIYDASNRATGIPARFSGSGSGTDFTLTISSLEPEDFAVYYCQQRSNWIFTFGPGTKVDIKR", "pIC50", 8.89]
]}

Alright, here's another binder for you.
Exercise: Supply recorded pIC50 for 1G5.B2 antibody (antibody, human IgG1, kappa, V domains shown, Hybridoma antibody; printed as IG5.B2 in two paragraphs; also called IG5.B2) VH: QVQLVESGGGVVQPGRSLRLSCAASGFTFSDYAMHWVRQTPGRGLEWLTFISYDGSNKYHADSVKGRFTISRDNSKNTLFLQMNSLRAEDTAVYYCARDSWDRGYFDLWGRGTLVTVSS VL: EIVLTQSPATLSLSPGERATLSCRASQSVSSYLAWYQQKPGQAPRLLIYDASNRATGIPARFSGSGSGTDFTLTISSLEPEDFAVYYCQQRSNWWTFGQGTKVEIKR here.
Solution: 9.15
